Where do the numbers come from? From PubChem BioAssay.

Assay: reduction of polyQ htt aggregates in cells – imaging, exon1htt(103Q)mCFP cells, high-content imaging, primary screen (AID 483);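 further: compound exposure lasted 3 days before fixation; percent of the per-plate median nuclei count of sample wells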
Conditions: exon1htt(103Q)mCFP cell line, aggregate imaging, at 2 µM; measured here: cell count, toxicity
Listing: nuclei count of selected compounds
Give the value, in units of %, as a plain number.

For orientation, consider the following solved cases.
| compound | nuclei count / % |
| --- | --- |
| Cc1ccc(NC(=O)Nc2ccc3c(c2)N(C)C(=O)CS3)nc1 | 123 |
| COc1ccc(C(F)(F)F)cc1NC(=O)c1nc2nc(C)cc(C(F)F)n2n1 | 94.5 |
| COC(=O)C1(C(=O)OC)Sc2ccccc2C1=O | 75.3 |

Now, please, on to the next compound.
Ask | Give the value of nuclei count reported for the following: Cn1c2c(c(=O)[nH]c1=O)C(NC(=O)c1ccco1)(C(F)(F)F)C(=O)N2 (stereo unspecified)
Reply | 108
